The origin of these recorded values is patent US20090232838A1.

Experimental System: hMC4-R (Homo sapiens)
Sequence (P32245 whole entry): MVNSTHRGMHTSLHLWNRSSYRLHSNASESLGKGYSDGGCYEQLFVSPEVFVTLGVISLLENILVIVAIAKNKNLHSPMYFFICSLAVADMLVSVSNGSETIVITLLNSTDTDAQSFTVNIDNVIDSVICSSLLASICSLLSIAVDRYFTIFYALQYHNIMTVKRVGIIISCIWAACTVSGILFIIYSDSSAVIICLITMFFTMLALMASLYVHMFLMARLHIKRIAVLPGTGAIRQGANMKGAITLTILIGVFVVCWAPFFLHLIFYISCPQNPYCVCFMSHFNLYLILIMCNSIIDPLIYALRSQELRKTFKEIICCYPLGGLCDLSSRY
Assay Info: cyclic AMP bioassay, hMC4-R
Would you mind telling me the reported pEC50 of each entry?
Numbers only, as −log10 of the molar value.

[[record]]
structure_smiles = "CCCC[C@H](NC(C)=O)C(=O)N[C@H]1CSSC[C@@H](C(=O)NCCC(=O)NCC(=O)N[C@@H](CCCNC(=N)N)C(=O)N[C@@H](CCCCN)C(=O)N[C@@H](CCCNC(=N)N)C(=O)N[C@@H](CCCNC(=N)N)C(=O)N[C@@H](CCCNC(=N)N)C(=O)N[C@@H](CCC(N)=O)C(=O)N[C@@H](CCCNC(=N)N)C(=O)N[C@@H](CCCNC(=N)N)C(=O)N[C@@H](CCCNC(=N)N)C(N)=O)NC(=O)[C@H](Cc2c[nH]c3ccccc23)NC(=O)[C@H](CCCNC(=N)N)NC(=O)[C@@H](Cc2ccccc2)NC(=O)[C@H](Cc2c[nH]cn2)NC(=O)[C@@H](C)NC1=O"
experimental_system = "hMC4-R (Homo sapiens)"
readout_number = 9.53


// next entry
q: Enter recorded pEC50 with hMC4-R (Homo sapiens) for CCCC[C@H](NC(C)=O)C(=O)N[C@H]1CSSC[C@@H](C(=O)NCCC(=O)N[C@@H](CCCNC(=N)N)C(=O)N[C@@H](CCCNC(=N)N)C(=O)N[C@@H](CCCCN)C(=O)N[C@@H](CCCNC(=N)N)C(=O)N[C@@H](CCCNC(=N)N)C(=O)N[C@@H](CCC(N)=O)C(=O)N[C@@H](CCCNC(=N)N)C(=O)N[C@@H](CCCNC(=N)N)C(=O)N[C@@H](CCCNC(=N)N)C(N)=O)NC(=O)[C@H](Cc2c[nH]c3ccccc23)NC(=O)[C@H](CCCNC(=N)N)NC(=O)[C@@H](Cc2ccccc2)NC(=O)[C@H](Cc2c[nH]cn2)NC(=O)[C@@H](C)NC1=O here.
a: 9.44
